ASSAYED TARGET: Proteasome subunit beta (Trypanosoma cruzi) (UniProt O96673)
Sequence (O96673 as listed by the source): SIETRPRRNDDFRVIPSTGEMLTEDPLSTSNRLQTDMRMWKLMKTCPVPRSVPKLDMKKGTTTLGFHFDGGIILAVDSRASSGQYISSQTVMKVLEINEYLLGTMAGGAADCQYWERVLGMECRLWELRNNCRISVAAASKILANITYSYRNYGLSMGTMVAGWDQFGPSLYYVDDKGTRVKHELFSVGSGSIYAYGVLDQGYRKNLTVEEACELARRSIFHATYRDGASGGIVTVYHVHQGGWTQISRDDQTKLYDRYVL
METHOD SUMMARY: Trypanosoma cruzi proteasome chymotrypsin-like activity (TcProtChymo) assay.
Format: functional
Design: scale not given: in the data most compounds retested in dose-response had high values
RUN CONDITIONS: 9.37 µM
EXPERIMENTAL READOUT: Percent Effect (%)

[
  {
    "COMPOUND": "Cc1nc(C)n(C2CCCN(C(=O)c3ccc4c(c3)COC4)C2)n1 (configuration not stated)",
    "EXPERIMENTAL READOUT": "Percent Effect",
    "UNIT SYMBOL": "%",
    "QUANTITATIVE RESULT": -4.67
  },
  {
    "COMPOUND": "Cn1cc(N2CCC3(CCN(S(=O)(=O)C4CC4)C3)C2=O)cn1 (configuration not stated)",
    "EXPERIMENTAL READOUT": "Percent Effect",
    "UNIT SYMBOL": "%",
    "QUANTITATIVE RESULT": 8.55
  },
  {
    "COMPOUND": "CCC(=O)N1CC[C@@H](c2ccc3ccccc3c2)[C@H](O)C1",
    "EXPERIMENTAL READOUT": "Percent Effect",
    "UNIT SYMBOL": "%",
    "QUANTITATIVE RESULT": 16.2
  },
  {
    "COMPOUND": "CCNC(=O)N1CCC2(C1)c1ccccc1S(=O)(=O)N2CCC(C)C (configuration not stated)",
    "EXPERIMENTAL READOUT": "Percent Effect",
    "UNIT SYMBOL": "%",
    "QUANTITATIVE RESULT": 5.3
  },
  {
    "COMPOUND": "O=C1CC(c2ccccc2F)c2c(n3ccsc3nc2=O)N1 (configuration not stated)",
    "EXPERIMENTAL READOUT": "Percent Effect",
    "UNIT SYMBOL": "%",
    "QUANTITATIVE RESULT": 7.76
  },
  {
    "COMPOUND": "COc1cccc(CC2CN(C3CCN(C(C)=O)CC3)CCO2)c1 (configuration not stated)",
    "EXPERIMENTAL READOUT": "Percent Effect",
    "UNIT SYMBOL": "%",
    "QUANTITATIVE RESULT": -0.499
  },
  {
    "COMPOUND": "CSc1nccn1-c1cccc(C(=O)NCC2CC2)c1",
    "EXPERIMENTAL READOUT": "Percent Effect",
    "UNIT SYMBOL": "%",
    "QUANTITATIVE RESULT": 3.13
  },
  {
    "COMPOUND": "CCCNC(=O)c1sc(Nc2ccc(Cl)cn2)nc1C",
    "EXPERIMENTAL READOUT": "Percent Effect",
    "UNIT SYMBOL": "%",
    "QUANTITATIVE RESULT": 13.5
  },
  {
    "COMPOUND": "COc1c(C)cnc(CN2CCC(N(C)C(C)C(N)=O)CC2)c1C (configuration not stated)",
    "EXPERIMENTAL READOUT": "Percent Effect",
    "UNIT SYMBOL": "%",
    "QUANTITATIVE RESULT": 8.95
  },
  {
    "COMPOUND": "CC(=O)N1CCN(C)CC(COCc2ccccc2)C1 (configuration not stated)",
    "EXPERIMENTAL READOUT": "Percent Effect",
    "UNIT SYMBOL": "%",
    "QUANTITATIVE RESULT": -1.09
  },
  {
    "COMPOUND": "COc1cc(NC(=O)c2cc(C)sc2C)c(C(=O)N(C)C)cc1OC",
    "EXPERIMENTAL READOUT": "Percent Effect",
    "UNIT SYMBOL": "%",
    "QUANTITATIVE RESULT": 19.1
  },
  {
    "COMPOUND": "Cc1cccc(S(=O)(=O)NCC(C)N2CCN(C)CC2)c1Cl (configuration not stated)",
    "EXPERIMENTAL READOUT": "Percent Effect",
    "UNIT SYMBOL": "%",
    "QUANTITATIVE RESULT": 2.83
  }
]
